READOUT: melting point

Examples with answers:
O=C(O)c1cc2ccc([N+](=O)[O-])cc2n1Cc1ccc(Cl)c(Cl)c1 [Example 3.64]: 256 to 257 °C
O=C(O)c1cc2ccc(C(F)(F)F)cc2n1Cc1ccc(Cl)c(Cl)c1: 238 to 239 °C
O=C(O)c1cc2ccc(Cl)cc2n1Cc1ccc(Cl)c(Cl)c1: 219 to 220 °C
CC(=O)Nc1ccc2c(c1)cc(C(=O)O)n2Cc1ccc(Cl)c(Cl)c1 [Example 4]: 245 to 246 °C

Now consider the entry below.
### Prompt Data request, read-out melting point, for COc1ccc2cc(C(=O)O)n(Cc3ccc(Cl)c(Cl)c3)c2c1
### Response 165 to 166 °C
